FYI, the data here is from patent US20180016327A1.

% binding (parent = 100) values for the binders below.
Molecular target: T1, human C5 (human, UniProt P01031 19-673; P01031 678-1676, Beta and alpha chains are disulfide-linked and the protein is glycosylated.)
T1 construct: Either in-house recombinant C5 or plasma derived C5 (CALBIOCHEM) was used; also called recombinant human C5; plasma derived human C5
Assay: Biacore, captured antibody, pH 7.4, 37 C;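 further: biacore binding response of anti-C5 antibody light chain variants captured on chip with human C5 injected, ACES running buffer containing 1.2 mM CaCl₂, parent light chain antibody set to 100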
Answer with a number only, understood to be in %.

- BINDER: "CFP0015 15L 94F (antibody, V domains shown) VH: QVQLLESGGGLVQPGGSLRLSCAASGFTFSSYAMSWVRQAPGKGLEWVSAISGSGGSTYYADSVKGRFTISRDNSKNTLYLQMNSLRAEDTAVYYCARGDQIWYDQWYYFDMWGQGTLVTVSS VL: DIQMTQSPSSLSASVGDRVTITCRASQSIEDDLAWYQQKPGKAPKLLIYEASNLQSGVPSRFSGSGSGTDFTLTISSLQPEDFATYYCQQYDSFPLTFGQGTKVEIK"
  % binding (parent = 100), %: 10.6

Note: attention shifts to another entry.
Notebook: CFP0015 15L 30P (antibody, V domains shown) VH: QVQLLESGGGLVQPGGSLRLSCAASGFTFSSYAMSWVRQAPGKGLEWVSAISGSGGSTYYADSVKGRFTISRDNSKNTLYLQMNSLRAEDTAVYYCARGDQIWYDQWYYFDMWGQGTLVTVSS VL: DIQMTQSPSSLSASVGDRVTITCRASQSIPDDLAWYQQKPGKAPKLLIYEASNLQSGVPSRFSGSGSGTDFTLTISSLQPEDFATYYCQQYDSSPLTFGQGTKVEIK , % binding (parent = 100) read as 60.9
